The compounds listed here are annotated with their viability.
# TEST DESCRIPTION: reversal of MRP1-mediated doxorubicin resistance, pilot screen, H69AR cells, doxorubicin co-treatment (AID 601)
# COND: H69AR cells, CellTiter-Glo, 72 h; compound alone cytotoxicity; at 10 µM
Kindly answer with a numeric value in %, unit omitted.

Cc1cccc(C)c1NC(=O)CS(=O)CC(=O)NC1CCCc2ccccc21 (stereo not given) ... 88.7
Cc1cc(NC(=O)Cn2cnc3c(cnn3C(C)(C)C)c2=O)no1 ... 91.9
CN1C(=O)CSc2ccc(NC(=O)N3CCN(c4ccccn4)CC3)cc21 ... 91.3
COC(=O)CSc1nc2ncc(Cl)cc2[nH]1 ... 89.8

Now consider a different compound.
Prompt: May I ask what viability has been recorded for COc1ccc(Cc2noc(-c3ccc(C)cc3)n2)cc1 ?
Response: 91.2

----------
# TEST DESCRIPTION: growth inhibitors of H69AR lung tumor, primary screen, human, duplicate replicates (AID 580);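 further: 100% = mean luminescence of untreated wells and 0% = no signal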
# COND: H69AR lung tumor cells viability, ATP luminescence, 72 h; at 10 µM; stronger effect = lower value
MEASURE NAME: viability (%)
Kindly answer with a numeric value in %, unit omitted.

Cc1ccc(-c2cn3nc(C)c(C)nc3n2)cc1 ... 85.5
COc1ccccc1NC(=O)N1CCCC1C(=O)NC1CCCCC1 (stereo not given) ... 80.1
CC(=O)NC(=O)NC1CSCC1OC(C)=O (stereo not given) ... 92.8
Cc1cc(C)c2cc3c(ccn3C3OC[C@H](O)[C@H](O)[C@H]3O)cc2n1 (stereo not given in full) ... 97.4
CC(C)(C)n1ncc2c(=O)n(CC(=O)c3ccccc3)cnc21 ... 84.2
COc1cc(NS(=O)(=O)c2ccc(Br)s2)cc(OC)c1 ... 99.9
NC(=O)C1(N2CCCCC2)CCN(C2CC(=O)N(Cc3cccs3)C2=O)CC1 (stereo not given) ... 98
CCN(CCNC(=O)C1CCN(S(=O)(=O)CC)CC1)c1ccccc1 ... 95.7
Cc1nnc(C)c2c(C)n(-c3ccc(Br)cc3)c(C)c12 ... 104

Prompt: May I ask what viability has been recorded for Cc1cc(NC(=O)CCCN2C(=O)c3cccnc3C2=O)no1 ?
Response: 107

----------
# TEST DESCRIPTION: HUVEC growth inhibition – cell-based, human, primary screen (AID 575);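 further: 100% = median of untreated cell wells with 0.1% DMSO on each plate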
# COND: HUVEC proliferation, CellTiter-Glo luminescence, 72 h; at 10 µM; stronger effect = lower value
MEASURE NAME: viability (%)
Kindly answer with a numeric value in %, unit omitted.

Cc1cc(=O)oc2ccc(OCC(=O)N3CCC(C)CC3)cc12 ... 92.3

Prompt: May I ask what viability has been recorded for O=C(NCC(c1cccnc1)N1CCOCC1)c1ccco1 (stereo not drawn) ?
Response: 106

Prompt: May I ask what viability has been recorded for CCCN(CCC)CCNC(=O)C(NS(=O)(=O)c1ccc2c(c1)CCC(=O)N2)c1ccccc1 (stereo not drawn) ?
Response: 108

Prompt: May I ask what viability has been recorded for CCCn1c(=O)c2ccccc2n2c(SCc3cc(=O)n4ccsc4n3)nnc12 ?
Response: 104

Prompt: May I ask what viability has been recorded for O=C(c1ccc(Cl)c(Cl)c1)N1CCOCC1 ?
Response: 91.7

Prompt: May I ask what viability has been recorded for CC(=O)c1coc2ccc(OCC(=O)O)cc12 ?
Response: 105

Prompt: May I ask what viability has been recorded for CCOC(=O)c1ccc(COC(=O)CCc2nc3ccccc3[nH]c2=O)o1 ?
Response: 100

Prompt: May I ask what viability has been recorded for CC(NC(=O)CSc1n[nH]c(=O)n1C1CC1)C12CC3CC(CC(C3)C1)C2 (stereo not drawn) ?
Response: 91.6

src = PubChem BioAssay
